Origin of the recorded values: PubChem BioAssay (NCI)

- Test system: CAKI-1 renal
- Protocol Description: NCI tumour cell line growth inhibition, 48 h
Reported TGI values are given for each entry in this list.
Your answer should be a plain number; it is taken to be in µM.

>  <Molecule>
CN(C)CCOc1ccccc1NC1=C(Cl)C(=O)C(Nc2ccccc2OCCN(C)C)=C(Cl)C1=O

>  <Target Or Test System>
CAKI-1 renal

>  <Unit Of Measurement>
µM

>  <TGI>
2.36

$$$$

Measured TGI, Cn1c(-c2c(N)n(Cc3ccc(F)cc3)c3nc(C#N)c(C#N)nc23)nc2ccccc21 : 4.43

Measured TGI, COc1cc2nc3cc([N+](=O)[O-])ccc3c(NCCNCC(C)O)c2cc1OC (centres undefined) : 10.9

###

- Test system: PC-3 prostate
- Protocol Description: NCI tumour cell line growth inhibition, 48 h; in the data active means GI50 below about 0.43 µM; inactive means the rest
Hi there, use one of these labels in your reply, thanks! yes (1) = active, no (0) = inactive

Past entries and their recorded results:
>  <Compound>
O=C(c1ccccc1)c1nc2ccc(C(F)(F)F)cc2nc1N1CCN(c2ccccc2)CC1

>  <Class>
no (0)

$$$$
>  <Compound>
C=CC(=O)N1CC[C@H](n2nc(C#Cc3cc(OC)cc(OC)c3)c3c(N)ncnc32)C1

>  <Class>
no (0)

$$$$

Prompt line: Look up the recorded call for CNC(=O)c1cccc(C#Cc2cncnc2Nc2ccc(OCc3cccc(F)c3)c(Cl)c2)c1 in this test.
Response line: no (0)

Prompt line: Look up the recorded call for Cc1ccsc1-c1ccc2c(c1)COC2(CCCN(C)C)c1ccc(F)cc1 (stereo not drawn) in this test.
Response line: no (0)

Prompt line: Look up the recorded call for Cc1ccccc1C(C(=O)NC1CCCCC1)N(C(=O)CNc1ncccc1F)c1cccc(F)c1 (stereo not drawn) in this test.
Response line: no (0)

Prompt line: Look up the recorded call for Cc1cccc(Cl)c1NC(=O)c1cnc(Nc2cc(N3CCOCC3)cc(S(C)(=O)=O)c2)s1 in this test.
Response line: no (0)

Prompt line: Look up the recorded call for CCOC(=O)c1cc(NS(=O)(=O)c2ccc(C)cc2)cc(C(=O)OCC)c1 in this test.
Response line: no (0)

Prompt line: Look up the recorded call for Cc1[nH]nc2ncc(C(=O)N3CCC[C@H]3c3ccc(Cl)cc3)cc12 in this test.
Response line: no (0)

Prompt line: Look up the recorded call for Cc1ccccc1C(C(=O)NC1CCCCC1)N(C(=O)CNc1ccc(C#N)cc1)c1cccc(F)c1 (stereo not drawn) in this test.
Response line: no (0)

Prompt line: Look up the recorded call for COc1ccc(Cn2cc3c(c2-c2cc(OC)c(OC)c(OC)c2)CCc2c(CO)noc2-3)cc1 in this test.
Response line: yes (1)

Prompt line: Look up the recorded call for CC(=O)N[C@@H](Cc1ccc(OP(=O)(O)O)cc1)C(=O)N[C@H]1CCC(=O)N2CCC[C@@H](C(=O)NCc3ccccc3)N2C1=O in this test.
Response line: no (0)

Prompt line: Look up the recorded call for COc1ccc(-c2[nH]nc(N)c2-c2cc(OC)c(OC)c(OC)c2)cc1 in this test.
Response line: yes (1)

Prompt line: Look up the recorded call for C=CC(=O)Nc1cccc(Oc2nc(Nc3ccc(N4CCN(C)CC4)cc3OC)ncc2Cl)c1 in this test.
Response line: no (0)
